# assay.procedure: Half-life was determined
# Type: ADME
# details: human
observation.type: half-life (h)
Numbers only, in h.

INPUT: Please give the measured half-life for this molecule: Cc1cn(C2C=CC(COP3(=O)OCc4c(F)c(C(C)(C)C)cc(C(C)(C)C)c4O3)O2)c(=O)[nH]c1=O (stereo unspecified)
OUTPUT: 6.2

====

# assayed.system: UniProt P06276
# Sequence (P06276 whole entry): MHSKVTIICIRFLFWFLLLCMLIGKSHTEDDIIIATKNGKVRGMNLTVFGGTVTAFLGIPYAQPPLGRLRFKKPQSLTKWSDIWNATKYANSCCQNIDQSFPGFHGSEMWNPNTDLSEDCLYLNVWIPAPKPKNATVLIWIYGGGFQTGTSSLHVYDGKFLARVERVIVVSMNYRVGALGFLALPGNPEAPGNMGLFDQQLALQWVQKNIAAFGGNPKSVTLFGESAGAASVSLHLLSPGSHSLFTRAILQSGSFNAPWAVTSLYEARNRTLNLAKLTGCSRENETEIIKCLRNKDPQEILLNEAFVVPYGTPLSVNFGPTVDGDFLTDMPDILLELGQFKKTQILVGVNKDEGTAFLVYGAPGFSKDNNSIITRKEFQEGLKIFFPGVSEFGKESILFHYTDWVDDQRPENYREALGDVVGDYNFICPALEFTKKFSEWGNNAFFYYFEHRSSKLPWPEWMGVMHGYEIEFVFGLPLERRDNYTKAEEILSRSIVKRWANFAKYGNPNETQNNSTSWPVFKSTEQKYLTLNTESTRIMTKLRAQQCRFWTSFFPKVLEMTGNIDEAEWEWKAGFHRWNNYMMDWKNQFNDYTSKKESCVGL
So I've got a bunch of compounds here, and I need their IC50 values.
Answers are plain numbers, in µM.

Use the examples below as a reference point.
> print(dat)
                                   compound  assayed.system  value
1  Cc1cn(C2C=CC(COP3(=O)OCc4cccc(CCC(=O)OCc5ccccc5)c4O3)O2)c(=O)[nH]c1=O (centres undefined)  UniProt P06276    2.8
2  Cc1cn(C2C=CC(COP3(=O)OCc4c(ccc5ccccc45)O3)O2)c(=O)[nH]c1=O (centres undefined)  UniProt P06276    3.9

INPUT: Can you look up IC50 on UniProt P06276 for Cc1cn(C2C=CC(COP3(=O)Oc4ccccc4C(C(Cl)Cl)O3)O2)c(=O)[nH]c1=O (centres undefined) ?
OUTPUT: 26
